tested on: T-47D breast; assay: NCI-60 one-dose screen, 48 h (100 = growth as untreated, 0 = no growth, -100 = all killed); details: 10 µM unless noted
This is part of a sample that, as a whole, favours compounds with a hit. Of some 83,000 tested, about 20% had one in any assay.
growth listing for selected molecules.
readoutName: growth (%)

INSERT INTO results (molecule, unitlabel, measured) VALUES
  ('Cc1ccc(NC(=O)c2ccccc2Cl)cc1', '%', 112),
  ('CCOc1ccccc1NC(=O)CCl', '%', 75.3),
  ('C#CC(O)c1ccccc1 (stereo not drawn)', '%', 99.9),
  ('CC(=O)Nc1ccc(C(=O)c2ccc(S(=O)(=O)Nc3ccccc3)cc2)cc1', '%', 99.2),
  ('COC1CC(OC(=O)c2ccc([N+](=O)[O-])cc2)C(COC(=O)c2ccc([N+](=O)[O-])cc2)O1 (stereo not drawn)', '%', 104),
  ('COC1(OC)C2(Cl)C(Cl)=C(Cl)C1(Cl)C1COCC12 (stereo not drawn)', '%', 96.2),
  ('C=CC(C)C(C)(C)O (stereo not drawn)', '%', 89.2),
  ('O=C(OCC1CCCO1)c1ccc([N+](=O)[O-])cc1 (stereo not drawn)', '%', 84.8),
  ('CC(C)(C)NCCC(O)c1cc(C(F)(F)F)nc2c(C(F)(F)F)cccc12 (stereo not drawn)', '%', 86.8),
  ('CC(=O)c1ccc(C)cc1', '%', 120),
  ('CCC(/C=C\C(C)=O)CC', '%', 101),
  ('O=C(N/N=C\c1ccc(Cl)cc1Cl)c1ccncc1', '%', 96.6),
  ('Cc1ccc(NCN2C(=O)c3ccccc3C2=O)c(C)n1', '%', 119);
